- Test system: HT29 colon
- Run Description: NCI-60 one-dose screen, 48 h
- Cond: 10 µM unless noted
About 83,000 compounds went through this panel and 20% of them were active in at least one assay; those are over-represented in the sample as a whole. Active and inactive are the calls of the source. Rule for the calls: active = growth percent below 10; inactive = the rest.
Possible outcomes: true (1) for active, false (0) for inactive

• CCOc1ccccc1[C@H]1C(C(=O)c2ccc(Cl)cc2)C2(N[C@@H]1c1ccccc1)C(=O)Nc1ccccc12 (stereo partly specified) = true (1)
• Cc1ccc(C2CC(c3ccc(NC(=S)Nc4ccccc4)cc3)=NN2c2ccc(S(N)(=O)=O)cc2)cc1 (stereo unspecified) = true (1)
• COc1cccc2nc(Nc3cccc(NC(=O)c4ccc(CN5CCN(C)CC5)c(C(F)(F)F)c4)c3)ccc12 = true (1)
• CCC1(OC(=O)c2ccccc2SSCCOC(=O)CCCCC2SCC3NC(=O)NC32)C(=O)OCc2c1cc1n(c2=O)Cc2cc3ccccc3nc2-1 (stereo unspecified) = false (0)
• Nc1nn2c(-c3cc4cc(Br)ccc4oc3=O)ccnc2c1N=Nc1ccc(S(N)(=O)=O)cc1 = false (0)
• CCOc1ccccc1[C@H]1C(C(=O)c2ccc(Cl)cc2)C2(N[C@@H]1c1ccccc1)C(=O)Nc1ccc(Br)cc12 (stereo partly specified) = true (1)
• C[C@@H]1CN(c2ccc3ncc(C#Cc4cncc(C(=O)Nc5ccc(CN6CCN(C)CC6)c(C(F)(F)F)c5)c4)n3n2)C[C@@H](C)O1 = true (1)
• ClC(Cn1ncc2c(Nc3cccc(Br)c3)nc(SCCN3CCOCC3)nc21)c1ccc(Br)cc1 (stereo unspecified) = true (1)
• COc1ccc(SC2c3cc(OC)ccc3Oc3nc(N)c(C#N)c(N)c32)cc1 (stereo unspecified) = false (0)
• O=C(c1ccc(O)cc1)C1[C@H](c2ccccc2Br)[C@@H](c2ccccc2)NC12C(=O)Nc1ccccc12 (stereo partly specified) = true (1)
• N#CC1=C(c2cccs2)Nc2c(c(-c3ccccc3)nn2-c2ccccc2)C12C(=O)Nc1ccccc12 (stereo unspecified) = true (1)
• Cn1cc(-c2cc(N)n3nc(-c4c[nH]c5ccccc45)cc3n2)c2cc(F)ccc21 = true (1)
• O=C(Nc1ccc(Br)cc1)Nc1ccc(-c2ccc3c(c2)NC(=O)/C3=C\c2ccc[nH]2)cc1 = false (0)
• Oc1ccc(F)c(Nc2nc(SCCN3CCOCC3)nc3c2cnn3CC(Cl)c2ccc(Br)cc2)c1 (stereo unspecified) = true (1)
• O=C(c1ccc(Cl)cc1)C1[C@H](c2ccccc2Cl)[C@@H](c2ccccc2)NC12C(=O)Nc1ccc(Cl)cc12 (stereo partly specified) = true (1)
• CCCCCCCCCCCCCCCCCC(=O)Nc1ccc(OC)cc1 = false (0)
• OC1CCC(Cn2c(C(F)(F)F)cc3c(Cl)ncnc32)CC1 (stereo unspecified) = false (0)
• O=C(c1ccc(Cl)cc1)C1[C@H](c2ccccc2Cl)[C@@H](c2ccccc2)NC12C(=O)Nc1ccccc12 (stereo partly specified) = true (1)
• FC(F)(F)c1cc2c(Cl)ncnc2n1CCN1CCOCC1 = false (0)
• CC(C)(C)C(=O)c1c2c(c3ccc4c5ccccc5ccc4n13)C(=O)c1ccccc1C2=O = false (0)
• CC1=C(C)C(=O)C(NCCN2CCOCC2)=C(Br)C1=O = false (0)
• COc1c(B(O)O)cccc1-c1nc2ccc3cn[nH]c3c2c2c1CCCC2 = false (0)
• Cc1cccc(/C=C/c2ccc(NC(=S)NCCCCN(C)C)cc2)c1 = true (1)
• CCc1ccc(SC2c3cc(OC)ccc3Oc3nc(N)c(C#N)c(N)c32)cc1 (stereo unspecified) = true (1)
• Nc1cc(-c2c[nH]c3ccc(F)cc23)nc2cc(-c3c[nH]c4ccccc34)nn12 = true (1)
• N#Cc1cc(-c2ccc3ncnc(N4CCc5cc(F)c(Cl)cc54)c3c2)cnc1N = false (0)
• Cc1nc(Nc2ccccn2)sc1C1=NNC(c2ccccc2F)C1 (stereo unspecified) = false (0)
• O=C1Nc2cc(-c3ccc(NS(=O)(=O)c4ccc([N+](=O)[O-])cc4)cc3)ccc2/C1=C/c1ccc[nH]1 = true (1)
• COc1ccc(CCC2NCCc3c(Br)c4c(c(OC)c32)OCO4)cc1 (stereo unspecified) = true (1)
• O=C(NNC(=O)c1ccc(OCc2nc3ccc(Cl)cc3[nH]2)cc1)Nc1ccc(Cl)c(Cl)c1 = false (0)
• CC[C@]12C=CCN3CC[C@@]4(c5ccc(OC)cc5N(C)[C@H]4[C@@](O)(C(=O)OC)[C@@H]1OC(=O)CCC[P+](c1ccc(OC)cc1)(c1ccc(OC)cc1)c1ccc(OC)cc1)[C@@H]32 = true (1)
• COc1ccc(/C=C/c2nc3ccccc3c(=O)n2CC(=O)Nc2ccccc2)cc1 = false (0)
• Fc1ccc(Nc2nnc(-c3c[nH]c4ccccc34)o2)cc1 = false (0)
• CC1CCc2c(sc3nc(SCC(=O)c4cccc([N+](=O)[O-])c4)n(-c4ccccc4)c(=O)c23)C1 (stereo unspecified) = false (0)
• C/C(=N/O)c1ccc(NC(=O)CSc2nnc(-c3ccc(-c4nc5ccc(Cl)cc5[nH]4)cc3)o2)cc1 = false (0)
• O=C1CCC(N2C(=O)c3cccc(NCCOCCOCCOCCC(=O)NCCCC(=O)NC(c4ccc5c(c4)OCO5)c4cc(Cl)c5cccnc5c4O)c3C2=O)C(=O)C1 (stereo unspecified) = false (0)

---

- Test system: U251 CNS
- Run Description: NCI-60 one-dose screen, 48 h (100 = growth as untreated, 0 = no growth, -100 = all killed)
- Cond: 10 µM unless noted
Compounds without any hit were thinned out: in the full panel of roughly 83,000, 20% have a hit.
Readout Kind: growth (%)

- Cc1cnc2ccc(Oc3ccccc3-c3ccccc3)nn12: 100
- Cc1nn(-c2ccccc2)c2nc(C)n(CC(=O)N/N=C/c3ccccc3O)c(=O)c12: 28.7
- N#C/C(=C1/C(=O)Nc2ccccc21)c1nnc(NC(=O)c2ccc(-n3c(=O)[nH]c4ccccc4c3=O)cc2)s1: 37.5
- CC1=C(C(=O)OCc2ccccc2)C(c2cccc3ccccc23)n2c(nc3ccccc32)N1 (stereo not given): 24.9
- CN1C(=O)C(O)(CC(=O)c2cc3ccccc3oc2=O)c2ccccc21 (stereo not given): 97.2
- COc1ccc(-c2cc(-c3cc(C(C)C)c(O)cc3C)nn2-c2ccc(S(N)(=O)=O)cc2)cc1: 14.4
- COc1ccc(-c2cc(C)nc3[nH]c(=O)sc23)cc1: 9.93
- COc1ccc(/C=C/c2nc3ccccc3n3c(-c4cccc([N+](=O)[O-])c4)nnc23)cc1: -64.5
- CC1=C(C)C(=O)C(NCCN2CCOCC2)=C(Br)C1=O: 44.8
- CN1C(=O)/C(=C\C(=O)c2cc3ccccc3oc2=O)c2ccccc21: 42.6

---

- Tested on: SK-OV-3 ovarian
- Run Description: NCI-60 one-dose screen, 48 h (100 = growth as untreated, 0 = no growth, -100 = all killed)
- Cond: 10 µM unless noted
- Experimental: Growth inhibition of the SK-OV-3 human tumor cell line is measured as a screen for anti-cancer activity. Cells are grown in 96 well plates and exposed to the test compound for 48 hours. Compounds are tested at a single concentration, which is 10^-5 M for most compounds. The reported endpoint is percent growth (GI% or GIPRCNT), where numbers from 0 - 100% represent growth inhibition, and numbers from -100% - 0 represent cell death. For example, a value of 40 represents 60% growth inhibition. […]
About 83,000 compounds went through this panel and 20% of them were active in at least one assay; those are over-represented in the sample as a whole.
growth reference
Readout Kind: growth (%)

* CN(C)c1ccc(/C=C/c2n(Cc3ccc4ccccc4c3)c3ccccc3[n+]2Cc2ccc3ccccc3c2)cc1 | -80.3
* Clc1ccccc1Nc1nnc(-c2c[nH]c3ccccc23)o1 | 22.1
* C/C(=N\Nc1ccc(C(=O)O)cc1)c1cnn(-c2cc(=O)[nH]c3ccc(C)cc23)c1C | 94.3
* O=S(=O)(c1nc(-c2ccc(Br)cc2)oc1-c1ccc(Cl)cc1)N1CCCC(O)C1 (stereo not drawn) | 101
* COc1c2c(c(Br)c3c1C(CCc1ccccc1)N(C)CC3)OCO2 (stereo not drawn) | 76.8
* COc1ccc([C@H]2C(C(=O)c3ccc(Cl)cc3)C3(N[C@@H]2c2ccccc2)C(=O)Nc2ccccc23)cc1 (stereo partly drawn) | 72.5
* COC(=O)c1cc(C(=O)C(Br)Br)n2c1ccc1c3ccccc3ccc12 | 75.4
* O=C(c1ccc(Cl)cc1)C1[C@H](c2ccccc2Cl)[C@@H](c2ccccc2)NC12C(=O)Nc1ccc(Cl)cc12 (stereo partly drawn) | 1.4
* COc1cc(C2CC(c3ccc(S(=O)(=O)NCCNc4nc(N(C)C)nc(N5CCOCC5)n4)cc3)=Nc3c(N)nc(N)nc3N2)cc(OC)c1OC (stereo not drawn) | 115
* COC(=O)c1cc(C(=O)C(F)(F)F)n2c3ccccc3c3ccccc3c12 | 82.9
* O=c1[nH]c2ccccc2cc1CSc1ccccc1Nc1nccc(-c2ccc3c(c2)OCO3)n1 | 82.7
* Cc1[nH]nc2ccc3nc(-c4cn[nH]c4C(F)(F)F)c4c(c3c12)CCCC4 | -54.2
* Cc1ccc(C(=O)Nc2ccc(-n3ccnc3)c(C(F)(F)F)c2)cc1C#Cc1cnc2cccnn12 | 48
* O=C(OCCOCCO)N(c1cccc(Br)c1)c1nc(SCCN2CCOCC2)nc2c1cnn2CC(Cl)c1ccc(Br)cc1 (stereo not drawn) | 25.3
* Cc1cc(C)c2[nH]c(=O)c(C(c3nnnn3Cc3ccc4c(c3)OCO4)N3CCN(C)CC3)cc2c1 (stereo not drawn) | 111
* COc1cc(CNC(=O)[C@]23CCC(C)(C)CC2C2=CCC4[C@@]5(C)CCC(OC(C)=O)C(C)(C)C5CC[C@@]4(C)[C@]2(C)CC3)ccc1OCc1cn(-c2ccc(Cl)cc2Cl)nn1 (stereo partly drawn) | 112
* N#Cc1c(-c2ccc(F)cc2)nc(SCc2ccc(F)cc2)nc1N1CCNCC1 | 56.7
* S=C(Nc1ccc(OCc2nc3ccc(Cl)cc3[nH]2)cc1)NC1CCCCC1 | 29.2
